- PROTOCOL NOTES: Metabolic stability in dog liver microsomes assessed as half life
- Type: ADME, Canis lupus familiaris, Microsome
RESULT TYPE: half-life

Query: Using known records, supply half-life for C[C@@H]1CCCN1CCc1ccc(-c2ccc(=O)n(-c3ccc(F)cc3)n2)cc1
Result: > 40 min

Query: Using known records, supply half-life for C[C@@H]1CCCN1CCc1ccc(-c2ccc(=O)n(C)n2)cc1
Result: > 40 min

====

- PROTOCOL NOTES: Oral bioavailability in rat at 5 mg/kg
- Assay type: ADME, organism-based
- EXPERIMENTAL CONTEXT: in vivo
RESULT TYPE: bioavailability (%)
State just the number; it will be interpreted in %.

Query: Using known records, supply bioavailability for C[C@@H]1CCCN1CCc1ccc(-c2ccc(=O)n(-c3ccc(F)cc3)n2)cc1
Result: 27
